self-cleavage kobs at 640 uM GlcN6P listing for selected variants.
B1: glmS ribozyme (parent)
chain: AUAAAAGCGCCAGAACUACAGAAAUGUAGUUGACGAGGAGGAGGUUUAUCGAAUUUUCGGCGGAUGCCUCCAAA

- Variants of: B1
- protocol: self-cleavage kobs at 640 uM GlcN6P; higher = faster cleavage; RNA array
- condition_info: with glucosamine-6-phosphate
This sample holds only a part of the variants without activity.
Report only the number, with the unit s⁻¹ understood.

- A39U G41U U56G: 6.4e-05
- A14C A15G C70U: 0.000547
- U30G A39C: 0.000396
- C8A A15C C34A G38A C68G: 0.000341
- G32A U54A C68A: 0.000374
- A6U G66A: 3.28e-05
- G32A G40C: 5.53e-05
- G66C C68U C70U: 0.000337

Now consider a different variant.
The variant listed as U47A A53U shows self-cleavage kobs at 640 uM GlcN6P equal to 0.00349
